Tested on: LNCaP tumor-transplanted mouse
Assay: Internal radioactivity distribution using LNCaP tumor-transplanted mouse
Type: in vivo
Details: 192 h after administration
Brain values for the molecules below.
Write it as a number; the unit % ID/g goes unstated.

O=C([O-])CN(CCN(CCc1ccc(NC(=O)[C@H](CCCCNC(=O)CCC(=O)NCCCC[C@H](NC(=O)N[C@@H](CCC(=O)O)C(=O)O)C(=O)O)NC(=O)CCCc2ccc(I)cc2)cc1)CCN(CC(=O)[O-])Cc1cccc(C(=O)[O-])n1)Cc1cccc(C(=O)[O-])n1.[111In+3] [[^111In]In-Neunpa-2] : 0.02
O=C([O-])CN1CCN(C(CCC(=O)NCCCC[C@H](NC(=O)N[C@@H](CCC(=O)O)C(=O)O)C(=O)O)C(=O)[O-])CCN(CC(=O)[O-])CCN(C(CCC(=O)N[C@@H](CCCCNC(=O)CCCc2ccc(I)cc2)C(=O)O)C(=O)[O-])CC1.[111In+3] (stereo partly shown) [[^111In]In-PSMA-DA1] : 0.05
O=C([O-])CN(Cc1cccc(C(=O)[O-])n1)C[C@H](Cc1ccc(NC(=O)CCCCCNC(=O)CCC(=O)NCCCC[C@H](NC(=O)N[C@@H](CCC(=O)O)C(=O)O)C(=O)O)cc1)N(CC(=O)[O-])Cc1cccc(C(=O)[O-])n1.[111In+3] [[^111In]In-Octapa-1, reference compound] : 0.01

Attention now turns to another entry.
Short answer for O=C([O-])CN1CCN(C(CCC(=O)NCCCC[C@H](NC(=O)N[C@@H](CCC(=O)O)C(=O)O)C(=O)O)C(=O)[O-])CCN(CC(=O)[O-])CCN(C(CCC(=O)Nc2ccccc2)C(=O)[O-])CC1.[111In+3] (stereo partly shown) [[^111In]In-PSMA-DB, reference compound] : Brain was 0.04
